- System: SK-MEL-28 melanoma
- EXPERIMENT: NCI tumour cell line growth inhibition, 48 h
This section presents compounds with their documented GI50 values.

Would you please look over these solved cases?
{"columns": ["COMPOUND", "READOUT", "RESULT"],
 "data": [
  ["Nc1nc(/C=C\\c2ccc([N+](=O)[O-])o2)nc(N2CCN(c3ccccc3)CC2)n1", "GI50", "14.1 µM"],
  ["C=C(C)[C@@H]1CC=C(CO)CC1", "GI50", "> 10 µM"],
  ["CCN1C(=O)N(CC)C2C1NN=c1s/c(=C3\\C(=O)N(C(C)C)c4ccccc43)c(=O)n12 (centres undefined)", "GI50", "1.07 µM"],
  ["O=C(CCN1CCCC1)Nc1ccc2c(NCc3ccc(F)cc3)c3ccccc3nc2c1", "GI50", "1.47 µM"],
  ["COc1ccccc1[N-]C(C1=C([O-])c2ccccc2C1=O)c1ccccc1.COc1ccccc1[N-]C(C1=C([O-])c2ccccc2C1=O)c1ccccc1.[Cu+2] (centres undefined)", "GI50", "16.2 µM"]
]}

Input: Annotate the compound `CCc1c(C)[nH]c(/C=C2\N=C(c3ccc[nH]3)C=C2OC)c1C` with its measured GI50.
Output: 0.365 µM

Input: Annotate the compound `COc1cccc(C2=C(c3cn(C)c4ccccc34)C(=O)NC2=O)c1` with its measured GI50.
Output: > 21.7 µM

Input: Annotate the compound `CC[C@](C)(O)C(=O)O[C@H]1C(=O)O[C@@H]2C[C@H]3C(C)=CC(=O)[C@@H](O)[C@]3(C)[C@H]3[C@@]4(O)OC[C@]32[C@@H]1[C@@H](C)[C@H]4O` with its measured GI50.
Output: 0.0609 µM

Input: Annotate the compound CC12CCC(=O)C(O1)C1C(=O)c3cc4ccccc4cc3C(=O)C12 (centres undefined) with its measured GI50.
Output: 20.3 µM
